Target: RORc ligand binding domain (Homo sapiens, UniProt P51449)
Sequence (P51449 269-508 limits assumed): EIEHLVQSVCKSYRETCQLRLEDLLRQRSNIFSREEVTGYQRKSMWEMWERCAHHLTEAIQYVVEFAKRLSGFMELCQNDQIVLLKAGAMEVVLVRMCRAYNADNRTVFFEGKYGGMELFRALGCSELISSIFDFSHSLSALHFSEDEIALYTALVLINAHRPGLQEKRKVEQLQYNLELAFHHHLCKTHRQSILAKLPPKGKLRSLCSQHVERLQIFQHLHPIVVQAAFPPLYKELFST
Reported IC50 is given for each of the following molecules.

compound structure	units label	IC50
CC1(C)[C@H]2CC[C@]1(OC1(CC(N)=O)CC1)c1nnc(-c3c(F)cccc3F)cc12	nM	74.8
CC1(C)[C@H]2CC[C@]1([C@H]1CCCN(c3cccc(=O)[nH]3)C1)c1nnc(-c3c(F)cccc3F)cc12	nM	36
CC[C@H](O[C@@]12CC[C@@H](c3cc(-c4c(F)cccc4F)nnc31)C2(C)C)C(=O)NCCO	nM	44.5
CC1(C)[C@H]2CC[C@]1(OCc1cnccn1)c1nnc(-c3c(F)cccc3F)cc12	nM	133

---

Target: RORc ligand binding domain (Homo sapiens, UniProt P51449)
Construct: host or cells: E. coli
Test: In vitro RORc ligand binding assay (25-[3H]hydroxycholesterol displacement, filter binding)
Procedure: This assay was used to determine a compound's potency in inhibiting activity of RORc by determining, Kiapp, IC50, or percent inhibition values. On day of the assay, 100 uL of 0.05% CHAPS (in deionized H2O) was added to all wells of the GFB Unifilter plate and allowed soak for 1 h. […] Using a Packard Filtermate Harvester, the filter plate were washed 4 times following transfer of the incubated samples. […] 50 uL Microscint 0 was added to all wells and read on Topcount protocol Inverted.
pIC50: −log10 of the molar value.
Reported pIC50 is given for each of the following compounds.

compound structure	pIC50
CNC(=O)c1nnc([C@@]23CC[C@@H](c4cc(-c5c(F)cccc5F)nnc42)C3(C)C)o1	6.55
CC1(C)[C@H]2CC[C@]1([C@H]1CN(C(N)=O)CCO1)c1nnc(-c3c(F)cccc3F)cc12	7.18
CC[C@@H](O[C@@]12CC[C@@H](c3cc(-c4c(F)cccc4F)nnc31)C2(C)C)C(N)=O	8.06
CCNC(=O)[C@H](CC)O[C@@]12CC[C@@H](c3cc(-c4c(F)cccc4F)nnc31)C2(C)C	7.46
CNC(=O)N1CCC[C@H]([C@@]23CC[C@@H](c4cc(-c5c(F)cccc5F)nnc42)C3(C)C)C1	7.89
CC1(C)[C@H]2CC[C@]1([C@H]1CN(c3nc(CO)co3)CCO1)c1nnc(-c3c(F)cccc3F)cc12	7.43
CC1(C)[C@H]2CC[C@]1(OS(=O)(=O)C(F)(F)F)c1nnc(-c3c(F)cccc3F)cc12	8.22

---

Target: RORc ligand binding domain (Homo sapiens, UniProt P51449)
pIC50: −log10 of the molar value.
Response key: T means pIC50 >= 7; F means pIC50 < 7.

compound	group label
CC1(C)[C@H]2CC[C@]1([C@@H]1CN(C(N)=O)CCO1)c1nnc(-c3c(F)cccc3F)cc12	T
CC1(C)[C@H]2CC[C@]1(c1cncc3nccn13)c1nnc(-c3c(F)cccc3F)cc12	F
CN1CCN[C@H]([C@@]23CC[C@@H](c4cc(-c5c(F)cccc5F)nnc42)C3(C)C)C1	T
CN1CCO[C@H]([C@@]23CC[C@@H](c4cc(-c5c(F)cccc5F)nnc42)C3(C)C)C1	F
CC1(C)[C@H]2CC[C@]1([C@H]1CN(Cc3ccccc3)CCO1)c1nnc(-c3c(F)cccc3F)cc12	F
CC[C@@H](O[C@@]12CC[C@@H](c3cc(-c4c(F)cccc4F)nnc31)C2(C)C)C(=O)NCCCO	T
CC1(C)[C@H]2CC[C@]1([C@H]1CCCN(C(N)=O)C1)c1nnc(-c3c(F)cccc3F)cc12	T
CC1(C)[C@H]2CC[C@]1([C@H]1CN(S(C)(=O)=O)CCO1)c1nnc(-c3c(F)cccc3F)cc12	F
CC(C)NC(=O)N1CCC[C@H]([C@@]23CC[C@@H](c4cc(-c5c(F)cccc5F)nnc42)C3(C)C)C1	T
CC1(C)[C@H]2CC[C@]1([C@H]1CCCN(C(=O)c3cocn3)C1)c1nnc(-c3c(F)cccc3F)cc12	T
CC[C@@H](O[C@@]12CC[C@@H](c3cc(-c4c(F)cccc4F)nnc31)C2(C)C)C(=O)NCc1nnc(C)o1	T
CC1(C)[C@H]2CC[C@]1(O[C@@H](C(N)=O)C1CC1)c1nnc(-c3c(F)cccc3F)cc12	T
COC(=O)N1CCC[C@H]([C@@]23CC[C@@H](c4cc(-c5c(F)cccc5F)nnc42)C3(C)C)C1	T
CC(C)(C)OC(=O)N1CCN[C@H]([C@@]23CC[C@@H](c4cc(-c5c(F)cccc5F)nnc42)C3(C)C)C1 (single isomer, unassigned) [Compound 114]	F
CC1(C)[C@H]2CC[C@]1([C@H]1CN(C(=O)C(O)CO)CCO1)c1nnc(-c3c(F)cccc3F)cc12 (some centres unmarked)	F
